Cited source: paper PMC7158045

biological target: ZmDRIK1-R187-P492 (Zea mays); construct: kinase domain, R187-P492; assay: biochemical; conditions: read-out: dTm B, DSF, Boltzmann fit, 0.1% DMSO
Sequence (C0P4K9 1-514): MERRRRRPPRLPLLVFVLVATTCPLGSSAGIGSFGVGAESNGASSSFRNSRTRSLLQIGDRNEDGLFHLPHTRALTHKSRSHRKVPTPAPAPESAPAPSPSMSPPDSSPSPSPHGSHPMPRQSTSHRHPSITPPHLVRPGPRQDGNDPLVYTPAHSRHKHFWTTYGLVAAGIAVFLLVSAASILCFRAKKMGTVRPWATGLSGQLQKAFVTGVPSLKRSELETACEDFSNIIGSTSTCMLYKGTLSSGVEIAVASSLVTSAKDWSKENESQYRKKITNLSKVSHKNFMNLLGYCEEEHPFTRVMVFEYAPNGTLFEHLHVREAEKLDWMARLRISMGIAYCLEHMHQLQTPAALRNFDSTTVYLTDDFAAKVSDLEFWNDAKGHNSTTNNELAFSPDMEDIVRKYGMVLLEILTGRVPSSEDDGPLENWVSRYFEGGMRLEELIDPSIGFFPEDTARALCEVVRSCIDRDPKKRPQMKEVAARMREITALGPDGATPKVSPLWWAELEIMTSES
test readout: ΔTm at 10 µM
Report as: number unit

*Q* Which ΔTm at 10 µM is reported for this compound? Nc1cc(C(F)(F)F)c(-c2cc(N3CCOCC3)nc(N3CCOCC3)n2)cn1 [BKM120 (NVP-BKM120)]
*A* -0.326 °C

*Q* Which ΔTm at 10 µM is reported for this compound? O=S(=O)(NCCNC/C=C/c1ccc(Br)cc1)c1cccc2cnccc12 [H 89 2HCl]
*A* -0.178 °C

*Q* Which ΔTm at 10 µM is reported for this compound? CSc1cccc(Nc2ncc3cc(-c4c(Cl)cccc4Cl)c(=O)n(C)c3n2)c1 [PD173955]
*A* -0.72 °C

*Q* Which ΔTm at 10 µM is reported for this compound? Cc1ccc(C(=O)Nc2ccc(CN3CCN(C)CC3)c(C(F)(F)F)c2)cc1C#Cc1cnc2cccnn12 [Ponatinib (AP24534)]
*A* -0.39 °C

*Q* Which ΔTm at 10 µM is reported for this compound? CCOc1cc2ncc(C#N)c(Nc3ccc(F)c(Cl)c3)c2cc1NC(=O)/C=C/CN(C)C [Pelitinib (EKB-569)]
*A* -0.494 °C

*Q* Which ΔTm at 10 µM is reported for this compound? O=C(NC1CCNCC1)c1n[nH]cc1NC(=O)c1c(Cl)cccc1Cl [AT7519]
*A* 0.0148 °C

*Q* Which ΔTm at 10 µM is reported for this compound? C=CC(=O)Nc1cccc(Nc2nc(Nc3ccc(NC4CN(CCF)C4)cc3OC)ncc2C(F)(F)F)c1 [CNX-2006]
*A* -0.528 °C

*Q* Which ΔTm at 10 µM is reported for this compound? O=C(Nc1ccc(-c2ccnc(Nc3ccc(N4CCOCC4)cc3)n2)cc1)C1CCCN1 (centres unmarked) [XL019]
*A* -0.478 °C
